Origin of the recorded values: PubChem BioAssay AID1963861

tested on: 885724-159-R-J1-PDC KRAS PDC multicell spheroid viability; assay: Anticancer human tumor 885724-159-R-J1-PDC patient-derived pancreatic adenocarcinoma cell line growth inhibition [KRAS2]; conditions: curve of first compound; second compound 10 µM
Please provide measured IC50 for the entries that follow.

-- ask Looking for the measured IC50 of COc1cc(Nc2ncc3c(n2)-c2ccc(Cl)cc2C(c2c(F)cccc2OC)=NC3)ccc1C(=O)O + C=CC(=O)N1CCN(c2nc(=O)n(-c3c(C)ccnc3C(C)C)c3nc(-c4c(O)cccc4F)c(F)cc23)C(C)C1 , can you help?
-- reply > 10000 nM

-- ask Data request, read-out IC50, for CCN1CCN(Cc2ccc(Nc3ncc(F)c(-c4cc(F)c5nc(C)n(C(C)C)c5c4)n3)nc2)CC1 + CC1OCC2(CCN(c3cnc(Sc4ccnc(N)c4Cl)c(N)n3)CC2)C1N
-- reply > 1000 nM

-- ask Entry under review: CC(C)NCC(C(=O)N1CCN(c2ncnc3c2C(C)CC3O)CC1)c1ccc(Cl)cc1 (stereo not given) + COc1cc2nc(C)nc(NC(C)c3cc(N)cc(C(F)(F)F)c3)c2cc1OC1CCOC1 . Reported IC50?
-- reply < 31.6 nM

-- ask For CCN1CCN(Cc2ccc(Nc3ncc(F)c(-c4cc(F)c5nc(C)n(C(C)C)c5c4)n3)nc2)CC1 + C=CC(=O)N1CCN(c2nc(=O)n(-c3c(C)ccnc3C(C)C)c3nc(-c4c(O)cccc4F)c(F)cc23)C(C)C1 , what is its reported IC50?
-- reply > 1000 nM

-- ask Looking for the measured IC50 of COc1cc(Nc2ncc3c(n2)-c2ccc(Cl)cc2C(c2c(F)cccc2OC)=NC3)ccc1C(=O)O + COc1cc2nc(C)nc(NC(C)c3cc(N)cc(C(F)(F)F)c3)c2cc1OC1CCOC1 , can you help?
-- reply 88.3 nM

----------
For each of the compounds below, state its viability, T/C.
tested on: 885724-159-R-J1-PDC KRAS PDC multicell spheroid viability; experiment: Anticancer human tumor 885724-159-R-J1-PDC cell line growth inhibition [KRAS2]; conditions: second compound 0.316 µM; first compound 0.1 µM; stronger effect = lower value;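 also: spheroids exposed to agents for 7 days before readout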
Field: numeric (%). Do not append units.

-- ask Returns the measured viability, T/C for the input compound. Input: CC(=O)OC12COC1CC(O)C1(C)C(=O)C(O)C3=C(C)C(OC(=O)C(O)C(NC(=O)OC(C)(C)C)c4ccccc4)CC(O)(C(OC(=O)c4ccccc4)C21)C3(C)C (stereo not given) + COc1cc2nc(C)nc(NC(C)c3cc(N)cc(C(F)(F)F)c3)c2cc1OC1CCOC1
-- reply 116

-- ask Would you mind telling me what viability, T/C value was observed for COC(=O)c1ccc2c(C(=Nc3ccc(N(C)C(=O)CN4CCN(C)CC4)cc3)c3ccccc3)c(O)[nH]c2c1 + CNCc1ccccc1-c1csc(C(C)Nc2nc(C)nc3cc(OC)c(OC)cc23)c1 ?
-- reply 110

-- ask Any idea what its viability, T/C is? The compound is Cn1ncnc1[C@H]1c2n[nH]c(=O)c3cc(F)cc(c23)N[C@@H]1c1ccc(F)cc1 + CNCc1ccccc1-c1csc(C(C)Nc2nc(C)nc3cc(OC)c(OC)cc23)c1
-- reply 71.3

-- ask Could you share which viability, T/C value was measured for CN(C)C/C=C/C(=O)Nc1cc2c(Nc3ccc(F)c(Cl)c3)ncnc2cc1O[C@H]1CCOC1 + C=CC(=O)N1CCN(c2nc(=O)n(-c3c(C)ccnc3C(C)C)c3nc(-c4c(O)cccc4F)c(F)cc23)C(C)C1 ?
-- reply 86

-- ask For O=C(c1cc(Cc2n[nH]c(=O)c3ccccc23)ccc1F)N1CCN(C(=O)C2CC2)CC1 + CC1OCC2(CCN(c3cnc(Sc4ccnc(N)c4Cl)c(N)n3)CC2)C1N , what is its reported viability, T/C?
-- reply 109

-- ask Consider the compound Cn1nccc1Nc1nccc(-c2cc3c(s2)C(C)(C)N(CCN2CCOCC2)C3=O)n1 + C=CC(=O)N1CCN(c2nc(OCC3CCCN3C)nc3c2CCN(c2cccc4cccc(C)c24)C3)CC1CC#N and give its measured viability, T/C.
-- reply 72.8

-- ask Reported viability, T/C, compound CC(C)NCC(C(=O)N1CCN(c2ncnc3c2C(C)CC3O)CC1)c1ccc(Cl)cc1 (stereo not given) + C=CC(=O)N1CCN(c2nc(=O)n(-c3c(C)ccnc3C(C)C)c3nc(-c4c(O)cccc4F)c(F)cc23)C(C)C1 : ____
-- reply 93.6

-- ask Param item = CC1COCCN1c1cc(-c2ccnn2C)c2ccnc(-c3ccn[nH]3)c2n1 (stereo not given) + C=CC(=O)N1CCN(c2nc(=O)n(-c3c(C)ccnc3C(C)C)c3nc(-c4c(O)cccc4F)c(F)cc23)C(C)C1 ; retrieve measured viability, T/C.
-- reply 68.2

-- ask Form field: reported viability, T/C of COc1cc2nccc(Oc3ccc(NC(=O)C4(C(=O)Nc5ccc(F)cc5)CC4)cc3)c2cc1OC + C=CC(=O)N1CCN(c2nc(=O)n(-c3c(C)ccnc3C(C)C)c3nc(-c4c(O)cccc4F)c(F)cc23)C(C)C1
-- reply 117

-- ask What does the data say about its viability, T/C? Entry: O=C(c1cc(Cc2n[nH]c(=O)c3ccccc23)ccc1F)N1CCN(C(=O)C2CC2)CC1 + CNCc1ccccc1-c1csc(C(C)Nc2nc(C)nc3cc(OC)c(OC)cc23)c1
-- reply 107

----------
tested on: 885724-159-R-J1-PDC KRAS PDC multicell spheroid viability; experiment: Anticancer human tumor 885724-159-R-J1-PDC cell line growth inhibition [KRAS2]; details: second compound 3.16 µM; first compound 0.316 µM; stronger effect = lower value;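 also: spheroids exposed to agents for 7 days before readout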
Decision: viability, T/C beneath 80% gives 1.0; viability, T/C meeting or exceeding 80% gives 0.0.

-- ask # strict comparison: is reported viability, T/C < 80%? input = COc1cc(Nc2ncc3c(n2)-c2ccc(Cl)cc2C(c2c(F)cccc2OC)=NC3)ccc1C(=O)O + C=CC(=O)N1CCN(c2nc(=O)n(-c3c(C)ccnc3C(C)C)c3nc(-c4c(O)cccc4F)c(F)cc23)C(C)C1
-- reply 0.0

-- ask Hi there! Is viability, T/C for COC(=O)c1ccc2c(C(=Nc3ccc(N(C)C(=O)CN4CCN(C)CC4)cc3)c3ccccc3)c(O)[nH]c2c1 + C=CC(=O)N1CCN(c2nc(OCC3CCCN3C)nc3c2CCN(c2cccc4cccc(C)c24)C3)CC1CC#N below 80%, do you know?
-- reply 1.0

-- ask Lab log: compare recorded viability, T/C with 80%; is it strictly lower for CCNC(=O)CC1N=C(c2ccc(Cl)cc2)c2cc(OC)ccc2-n2c(C)nnc21 (stereo not given) + COc1cc2nc(C)nc(NC(C)c3cc(N)cc(C(F)(F)F)c3)c2cc1OC1CCOC1 ?
-- reply 1.0

-- ask Does CC(C)NCC(C(=O)N1CCN(c2ncnc3c2C(C)CC3O)CC1)c1ccc(Cl)cc1 (stereo not given) + CC1OCC2(CCN(c3cnc(Sc4ccnc(N)c4Cl)c(N)n3)CC2)C1N have viability, T/C strictly under 80%?
-- reply 1.0

-- ask Is viability, T/C of COc1cc2nccc(Oc3ccc(NC(=O)C4(C(=O)Nc5ccc(F)cc5)CC4)cc3)c2cc1OC + COc1cc2nc(C)nc(NC(C)c3cc(N)cc(C(F)(F)F)c3)c2cc1OC1CCOC1 strictly below 80%?
-- reply 0.0

-- ask API: query returns whether the molecule falls strictly under 80% in viability, T/C. Query: COc1cc(Nc2ncc3c(n2)-c2ccc(Cl)cc2C(c2c(F)cccc2OC)=NC3)ccc1C(=O)O + CC1OCC2(CCN(c3cnc(Sc4ccnc(N)c4Cl)c(N)n3)CC2)C1N
-- reply 1.0

-- ask Please state whether viability, T/C is below 80% for O=C(c1cc(Cc2n[nH]c(=O)c3ccccc23)ccc1F)N1CCN(C(=O)C2CC2)CC1 + C=CC(=O)N1CCN(c2nc(OCC3CCCN3C)nc3c2CCN(c2cccc4cccc(C)c24)C3)CC1CC#N
-- reply 1.0

-- ask Dear reviewer, please state whether CCN1CCN(Cc2ccc(Nc3ncc(F)c(-c4cc(F)c5nc(C)n(C(C)C)c5c4)n3)nc2)CC1 + C=CC(=O)N1CCN(c2nc(=O)n(-c3c(C)ccnc3C(C)C)c3nc(-c4c(O)cccc4F)c(F)cc23)C(C)C1 has viability, T/C strictly beneath 80%.
-- reply 0.0

-- ask Input O=C(c1cc(Cc2n[nH]c(=O)c3ccccc23)ccc1F)N1CCN(C(=O)C2CC2)CC1 + CC1OCC2(CCN(c3cnc(Sc4ccnc(N)c4Cl)c(N)n3)CC2)C1N ; condition: viability, T/C strictly below 80%. Does it hold?
-- reply 0.0

-- ask Given CC1(C)CCC(CN2CCN(c3ccc(C(=O)NS(=O)(=O)c4ccc(NCC5CCOCC5)c([N+](=O)[O-])c4)c(Oc4cnc5[nH]ccc5c4)c3)CC2)=C(c2ccc(Cl)cc2)C1 + C=CC(=O)N1CCN(c2nc(=O)n(-c3c(C)ccnc3C(C)C)c3nc(-c4c(O)cccc4F)c(F)cc23)C(C)C1 , is recorded viability, T/C strictly lower than 80%?
-- reply 0.0

-- ask Decide: viability, T/C of CC(=O)OC12COC1CC(O)C1(C)C(=O)C(O)C3=C(C)C(OC(=O)C(O)C(NC(=O)OC(C)(C)C)c4ccccc4)CC(O)(C(OC(=O)c4ccccc4)C21)C3(C)C (stereo not given) + CC1OCC2(CCN(c3cnc(Sc4ccnc(N)c4Cl)c(N)n3)CC2)C1N strictly below 80%?
-- reply 0.0

-- ask Please indicate whether the reported viability, T/C of CC1COCCN1c1cc(-c2ccnn2C)c2ccnc(-c3ccn[nH]3)c2n1 (stereo not given) + CNCc1ccccc1-c1csc(C(C)Nc2nc(C)nc3cc(OC)c(OC)cc23)c1 is strictly below 80%.
-- reply 1.0

-- ask Here's an entry: CCN1CCN(Cc2ccc(Nc3ncc(F)c(-c4cc(F)c5nc(C)n(C(C)C)c5c4)n3)nc2)CC1 + CNCc1ccccc1-c1csc(C(C)Nc2nc(C)nc3cc(OC)c(OC)cc23)c1 . Is its viability, T/C below 80%?
-- reply 1.0

-- ask Lab note: viability, T/C threshold 80%. Does this molecule come in strictly under it? O=C(c1cc(Cc2n[nH]c(=O)c3ccccc23)ccc1F)N1CCN(C(=O)C2CC2)CC1 + CNCc1ccccc1-c1csc(C(C)Nc2nc(C)nc3cc(OC)c(OC)cc23)c1
-- reply 1.0

-- ask hey, is viability, T/C for CCN1CCN(Cc2ccc(Nc3ncc(F)c(-c4cc(F)c5nc(C)n(C(C)C)c5c4)n3)nc2)CC1 + C=CC(=O)N1CCN(c2nc(OCC3CCCN3C)nc3c2CCN(c2cccc4cccc(C)c24)C3)CC1CC#N lower than 80% or not?
-- reply 1.0

-- ask # check: viability, T/C < 80% for CC(C)NCC(C(=O)N1CCN(c2ncnc3c2C(C)CC3O)CC1)c1ccc(Cl)cc1 (stereo not given) + COc1cc2nc(C)nc(NC(C)c3cc(N)cc(C(F)(F)F)c3)c2cc1OC1CCOC1
-- reply 1.0

-- ask Find out if reported viability, T/C for CCNC(=O)CC1N=C(c2ccc(Cl)cc2)c2cc(OC)ccc2-n2c(C)nnc21 (stereo not given) + CNCc1ccccc1-c1csc(C(C)Nc2nc(C)nc3cc(OC)c(OC)cc23)c1 is less than 80%
-- reply 1.0

-- ask Input CCNC(=O)CC1N=C(c2ccc(Cl)cc2)c2cc(OC)ccc2-n2c(C)nnc21 (stereo not given) + C=CC(=O)N1CCN(c2nc(=O)n(-c3c(C)ccnc3C(C)C)c3nc(-c4c(O)cccc4F)c(F)cc23)C(C)C1 ; condition: viability, T/C strictly below 80%. Does it hold?
-- reply 1.0

-- ask Please state whether viability, T/C is below 80% for CC(=O)OC12COC1CC(O)C1(C)C(=O)C(O)C3=C(C)C(OC(=O)C(O)C(NC(=O)OC(C)(C)C)c4ccccc4)CC(O)(C(OC(=O)c4ccccc4)C21)C3(C)C (stereo not given) + C=CC(=O)N1CCN(c2nc(OCC3CCCN3C)nc3c2CCN(c2cccc4cccc(C)c24)C3)CC1CC#N
-- reply 0.0
